Biological target: recombinant rat PAI-1 (Rattus norvegicus)
Sequence (P20961 24-402): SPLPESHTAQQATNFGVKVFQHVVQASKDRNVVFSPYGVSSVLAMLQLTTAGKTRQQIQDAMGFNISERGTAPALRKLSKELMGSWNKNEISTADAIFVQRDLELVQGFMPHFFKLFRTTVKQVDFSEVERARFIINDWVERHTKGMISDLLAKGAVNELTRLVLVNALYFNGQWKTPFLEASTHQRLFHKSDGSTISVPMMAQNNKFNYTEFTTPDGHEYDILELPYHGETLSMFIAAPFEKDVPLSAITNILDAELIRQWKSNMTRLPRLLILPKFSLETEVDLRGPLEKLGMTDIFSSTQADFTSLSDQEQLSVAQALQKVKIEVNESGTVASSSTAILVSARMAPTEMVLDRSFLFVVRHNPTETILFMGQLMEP
Test: biochemical
Settings: read-out: Inhibition Rate of PAI-1 Activity (%)
value_kind: inhibition at 0.3 µM (%)

> print(dat)
                                        mol                                 tested.on  readout.value
1  CC(C)(C)c1ccc(Oc2ccc(Oc3ccc(OC(F)(F)F)cc3)cc2CCC(=O)O)cc1  recombinant rat PAI-1 (Rattus norvegicus)              0
2  CCCOc1ccc(N(Cc2ccc(C(C)(C)C)cc2)C(=O)C(=O)O)c(-c2ccc(OC(F)(F)F)cc2)c1  recombinant rat PAI-1 (Rattus norvegicus)              4
3  CC(C)(C)c1ccc(Oc2cccc(-c3ccc(OC(F)(F)F)cc3)c2OCC(=O)O)cc1  recombinant rat PAI-1 (Rattus norvegicus)              0

* * *

Biological target: recombinant human PAI-1 (Homo sapiens, UniProt P05121)
Sequence (P05121 24-402): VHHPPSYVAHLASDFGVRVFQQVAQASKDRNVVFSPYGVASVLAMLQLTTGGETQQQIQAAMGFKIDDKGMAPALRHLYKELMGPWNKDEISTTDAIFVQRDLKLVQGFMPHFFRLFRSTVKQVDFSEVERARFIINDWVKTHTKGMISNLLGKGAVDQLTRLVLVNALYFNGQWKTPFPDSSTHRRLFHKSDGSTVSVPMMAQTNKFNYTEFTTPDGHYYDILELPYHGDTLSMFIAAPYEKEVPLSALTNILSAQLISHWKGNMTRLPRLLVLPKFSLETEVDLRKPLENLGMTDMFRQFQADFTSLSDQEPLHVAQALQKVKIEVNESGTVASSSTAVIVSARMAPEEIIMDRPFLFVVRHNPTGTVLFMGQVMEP
Assay: biochemical
Details: read-out: Inhibition Rate of PAI-1 Activity (%)
value_kind: inhibition at 25 µM (%)

> print(dat)
                                   compound  qualifier.symbol  readout.value
1  CC(C)(C)c1ccc(N(C(=O)C(=O)O)c2cccc(-c3ccc(OC(F)(F)F)cc3)c2)cc1 [Compound 158]                 >             99
2  CSc1ccc(-c2ccc(N(Cc3ccc(C(C)(C)C)cc3)C(=O)C(=O)O)cc2)cc1 [Compound 134]                 =             75
3  CC(OCC(=O)O)c1cc(-c2ccc(OC(F)(F)F)cc2)ccc1OCc1ccc(C(C)(C)C)cc1 (stereo not drawn) [Compound 108]                 =             95

* * *

Target: recombinant human PAI-1 (Homo sapiens);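 also: PAI-1 preincubated with compound, then two-chain tPA added, residual tPA activity read with fluorogenic Pyr-Gly-Arg-MCA substrate after 30 min at room temperature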
Experiment: biochemical
Conditions: read-out: Inhibition Rate of PAI-1 Activity (%)
value_kind: inhibition at 10 µM (%)

> print(dat)
                                   molecule  readout.value
1  CCCOc1ccc(-c2ccc(OC(F)(F)F)cc2)cc1N(CCCc1ccccc1)C(=O)C(=O)O [Compound 234]             83
2  CC(C)(C)c1ccc(-c2ccc(N(Cc3ccccc3OC(F)(F)F)C(=O)C(=O)O)cc2)cc1 [Compound 202]             94
3  O=C(O)C(=O)N(Cc1ccc(O)cc1)c1ccc(-c2ccc(OC(F)(F)F)cc2)cc1 [Compound 181]             11
4  O=C(O)C(=O)N(Cc1c(Cl)cccc1Cl)c1ccc(-c2ccc(OC(F)(F)F)cc2)cc1 [Compound 171]             44
5  CC(C)(C)c1ccc(Oc2cc(Oc3ccc(OC(F)(F)F)cc3)ccc2/C=C/C(=O)O)cc1 [Compound 89]             87

* * *

Target: recombinant rat PAI-1 (Rattus norvegicus)
Test: biochemical
Details: read-out: Inhibition Rate of PAI-1 Activity (%)
value_kind: inhibition at 10 µM (%)

> print(dat)
                                        mol                                 tested.on           value.kind  readout.value
1  CC(C)(C)c1ccc(Oc2cc(-c3ccc(OC(F)(F)F)cc3)ccc2CCC(=O)O)cc1  recombinant rat PAI-1 (Rattus norvegicus)  inhibition at 10 µM             84
2  CCN(CC)c1ccc(N(Cc2ccc(C(C)(C)C)cc2)C(=O)C(=O)O)c(-c2ccc(OC(F)(F)F)cc2)c1  recombinant rat PAI-1 (Rattus norvegicus)  inhibition at 10 µM             81
3  CC(C)(C)c1ccc(COc2cc(Oc3ccc(OC(F)(F)F)cc3)ccc2CCC(=O)O)cc1  recombinant rat PAI-1 (Rattus norvegicus)  inhibition at 10 µM             90

Data origin: patent EP2272817A1
